Values compiled from ChEMBL document CHEMBL3425444.

// reported log10(CC50 at 96 h) for each item listed
assay details: Cytotoxicity against human MT4 cells assessed as reduction of cell viability after 4 days by MTT assay
Type: cell-based
Kindly note that the scale is log10 and the underlying CC50 at 96 h is in µM.

1. Cc1cc(C#N)cc(C)c1Oc1ccnc(NC2CCN(CC(=O)Nc3ccc(Cl)c(Cl)c3)CC2)n1; 0.11

[ask] Look up log10(CC50 at 96 h): COc1ccc(NC(=O)CN2CCC(Nc3nccc(Oc4c(C)cc(C#N)cc4C)n3)CC2)cc1
[reply] 0.19

[ask] Look up log10(CC50 at 96 h): Cc1cc(C#N)cc(C)c1Oc1ccnc(NC2CCN(CC(=O)Nc3ccccc3F)CC2)n1
[reply] 2.08

[ask] Look up log10(CC50 at 96 h): Cc1cc(C#N)cc(C)c1Oc1ccnc(NC2CCN(CC(=O)Nc3c(Cl)cc(Cl)cc3Cl)CC2)n1
[reply] 0.18

[ask] Look up log10(CC50 at 96 h): Cc1cc(C#N)cc(C)c1Oc1ccnc(NC2CCN(CC(=O)Nc3ccc(S(N)(=O)=O)cc3)CC2)n1
[reply] 0.21

[ask] Look up log10(CC50 at 96 h): Cc1cc(C#N)cc(C)c1Oc1ccnc(NC2CCN(CC(=O)Nc3ccc(C#N)cc3F)CC2)n1
[reply] 0.29

[ask] Look up log10(CC50 at 96 h): Cc1cc(C#N)cc(C)c1Oc1ccnc(NC2CCN(CC(=O)Nc3ccc(F)cc3)CC2)n1
[reply] 0.26

[ask] Look up log10(CC50 at 96 h): Cc1cc(C#N)cc(C)c1Oc1ccnc(NC2CCN(CC(=O)Nc3ccc(Cl)cc3Cl)CC2)n1
[reply] 0.24

[ask] Look up log10(CC50 at 96 h): Cc1cc(C#N)cc(C)c1Oc1ccnc(NC2CCN(CC(=O)Nc3ccc(C#N)cc3)CC2)n1
[reply] -0.22

[ask] Look up log10(CC50 at 96 h): Cc1cc(C#N)cc(C)c1Oc1ccnc(NC2CCN(CC(=O)Nc3cccc(F)c3)CC2)n1
[reply] 0.15

[ask] Look up log10(CC50 at 96 h): Cc1cc(C#N)cc(C)c1Oc1ccnc(NC2CCN(CC(=O)Nc3ccc(Cl)cc3)CC2)n1
[reply] 0.00

[ask] Look up log10(CC50 at 96 h): Cc1ccc(NC(=O)CN2CCC(Nc3nccc(Oc4c(C)cc(C#N)cc4C)n3)CC2)cc1C
[reply] 0.18

[ask] Look up log10(CC50 at 96 h): Cc1cc(C#N)cc(C)c1Oc1ccnc(NC2CCN(CC(=O)Nc3ccc(Br)cc3)CC2)n1
[reply] 0.17

[ask] Look up log10(CC50 at 96 h): Cc1cc(C#N)cc(C)c1Oc1ccnc(NC2CCN(CC(=O)Nc3ccccc3)CC2)n1
[reply] 0.26

[ask] Look up log10(CC50 at 96 h): Cc1cc(C)cc(NC(=O)CN2CCC(Nc3nccc(Oc4c(C)cc(C#N)cc4C)n3)CC2)c1
[reply] 0.36

* * *

assay details: Retention time of the compound by HPLC analysis
Format: physicochemical
// reported Retention_time for each item listed
I only need the number, in min, no unit after it.

// worked examples, Retention_time included
1) Cc1cc(C#N)cc(C)c1Oc1ccnc(NC2CCN(CC(=O)Nc3ccc(F)cc3)CC2)n1; 10.85
2) Cc1cc(C#N)cc(C)c1Oc1ccnc(NC2CCN(CC(=O)Nc3ccc(Cl)c(Cl)c3)CC2)n1; 12.62

[ask] Look up Retention_time: Cc1cc(C#N)cc(C)c1Oc1ccnc(NC2CCN(CC(=O)Nc3ccccc3Cl)CC2)n1
[reply] 12.14

[ask] Look up Retention_time: Cc1cc(C#N)cc(C)c1Oc1ccnc(NC2CCN(CC(=O)Nc3cccc(F)c3)CC2)n1
[reply] 11.41

[ask] Look up Retention_time: Cc1cccc(NC(=O)CN2CCC(Nc3nccc(Oc4c(C)cc(C#N)cc4C)n3)CC2)c1
[reply] 11.43

[ask] Look up Retention_time: Cc1cc(C#N)cc(C)c1Oc1ccnc(NC2CCN(CC(=O)Nc3cc(Cl)cc(Cl)c3)CC2)n1
[reply] 13.08
